Where do the numbers come from? From PubChem BioAssay (Tox21).

Experiment: qHTS assay for small molecule agonists of the antioxidant response element (ARE) signaling pathway (AID 743202); as to activation: % is scaled to controls: 0 for no effect and ±100 for the full control effect
Conditions: HepG2 ARE-bla reporter, beta-lactamase FRET, 16 h; series mostly up to 73.3 µM
Records with an inconclusive call do not appear. Active and inactive are the calls of the source. Calls follow the shape of the dose curve; as a rule, active = well fitted activation curve with a large enough effect in the signal ratio in the repeat runs (not every such curve was filed as active); inconclusive = weak or mixed curves, or effect the other way; inactive = no such curve, though single readings can be large or run the other way; the % refers to the signal ratio.
Classes used: active, inactive

>>> class_label("c1cc(OCC2CO2)cc(OCC2CO2)c1 (stereo unspecified)")
"active"
>>> class_label("CC(C)(c1cc(Br)c(O)c(Br)c1)c1cc(Br)c(O)c(Br)c1")
"active"
>>> class_label("CC(=O)OC(OC(C)=O)c1ccc([N+](=O)[O-])o1")
"active"
>>> class_label("C=CC(=O)OCCC#N")
"active"
>>> class_label("CN(C)CCOC(c1ccccc1)c1ccccc1 (tested in a mixture with another compound)")
"inactive"
>>> class_label("Cc1ccc2ccc3cccc4ccc1c2c34")
"inactive"
>>> class_label("CCN(CC)CCSC(=O)C(c1ccccc1)c1ccccc1")
"inactive"
>>> class_label("NC(=O)C(=O)N/N=C/c1ccc([N+](=O)[O-])o1")
"active"
>>> class_label("C=C(C)C(=O)OCCC[Si](Cl)(Cl)Cl")
"inactive"
>>> class_label("CC1(C)C(=O)N(Br)C(=O)N1Br")
"inactive"
>>> class_label("CCCCCCOc1ccc(O)cc1")
"active"
>>> class_label("O=C1Nc2ccc(Cl)cc2[C@@](C#CC2CC2)(C(F)(F)F)O1")
"active"
>>> class_label("CCc1cccc(C)c1")
"inactive"
>>> class_label("C[C@@H]1CC[C@H]2C(C)(C)[C@H]3C[C@@]12CC[C@@]3(C)O")
"inactive"
>>> class_label("CCCC(CC)CCCCCCCN (stereo unspecified)")
"inactive"
>>> class_label("CCCCOC(=O)C(C)CC (stereo unspecified)")
"inactive"
>>> class_label("C=C1C(C)(C)[C@@]2(Cl)C(Cl)[C@]1(Cl)C(Cl)(Cl)C2(Cl)Cl (stereo partly specified)")
"active"
>>> class_label("CC1CCCNC1 (stereo unspecified)")
"inactive"
>>> class_label("NCCCC(O)(P(=O)(O)O)P(=O)(O)O")
"inactive"
>>> class_label("CCO[Si](CCCSSSSCCC[Si](OCC)(OCC)OCC)(OCC)OCC")
"inactive"
>>> class_label("COC(=O)[C@]1(C)CCC[C@@]2(C)[C@H]1CC=C1C=C(C(C)C)CC[C@@H]12")
"active"
>>> class_label("COC(=O)CC#N")
"inactive"
>>> class_label("c1ccc(Sc2ccccc2)cc1")
"inactive"
>>> class_label("CCCSS/C(CCO)=C(\\C)N(C=O)Cc1cnc(C)nc1N")
"inactive"
>>> class_label("CCCCCCCC/C=C\\CCCCCCCC(=O)OCCOC(=O)CCCCCCC/C=C\\CCCCCCCC")
"inactive"
>>> class_label("O=C(O)Cc1ccc(OCCNC[C@H](O)c2ccccc2)cc1")
"inactive"

====

Assay: qHTS assay to test for compound auto fluorescence at 460 nm (blue) in HEK293 cells (AID 720678); also: % is scaled to controls: 0 for no effect and ±100 for the full control effect
Details: blue autofluorescence 405/460 nm; series mostly up to 91.3 µM
Calls of active or inactive are those of the source. The call rests on the fitted dose curve; in most records, active means well fitted curve in the direction sought with a large enough effect in the repeat runs; inconclusive means weak or mixed curves; inactive means flat fitted curve, though single readings scatter.
recorded endpoint: fluorescence, % of triamterene

>>> value_observed("NCCCC(O)(P(=O)(O)O)P(=O)(O)O")
"inactive"
>>> value_observed("O=C(O)CCCCCCC(=O)O")
"inactive"
>>> value_observed("CN(C)CCCN1c2ccccc2Sc2ccc(C(F)(F)F)cc21")
"inactive"
>>> value_observed("NCCCCCCNCCCCCCN")
"inactive"
>>> value_observed("CN(C)c1ccc(N=Nc2ccccc2C(=O)O)cc1")
"inactive"
>>> value_observed("Oc1ccc(-c2ccccc2)c(Cl)c1")
"inactive"
>>> value_observed("C=C1C(C)(C)[C@@]2(Cl)C(Cl)[C@]1(Cl)C(Cl)(Cl)C2(Cl)Cl (stereo partly drawn)")
"inactive"
>>> value_observed("CCCCCCOc1cc(C)c(O)c(C)c1C")
"inactive"
>>> value_observed("CN(C)c1ccc(N=NS(=O)(=O)O)cc1")
"inactive"
>>> value_observed("CCO[Si](CCCSSSSCCC[Si](OCC)(OCC)OCC)(OCC)OCC")
"inactive"
>>> value_observed("O=C1C=CC(=O)N1c1ccccc1")
"inactive"
>>> value_observed("CC(O)C#CC(C)O (stereo not drawn)")
"inactive"
>>> value_observed("CC=O")
"inactive"
>>> value_observed("CCC(C)(C)c1cc(O)c(C(C)(C)CC)cc1O")
"inactive"
>>> value_observed("O=C1c2c(O)ccc(O)c2C(=O)c2c(NCCNCCO)ccc(NCCNCCO)c21")
"-0.405% [at 18.6 µM] (inactive)"
>>> value_observed("CCN(CC)CCNc1ccc(CO)c2sc3ccccc3c(=O)c12")
"inactive"
>>> value_observed("Cc1c(C)n(Cc2ccccc2)c2ccc(C(=O)OCCN(C)C)cc12")
"inactive"
>>> value_observed("CCN(CC)c1ccc(N)cc1")
"inactive"
